Field: IC50. Provide a value for each of the compounds that follow.
# Test System: UniProt:Q9UNA0
# Assay Info: hADAMTS-5 TBIS-1 cleavage assay, Protocol 3
# Type: biochemical
# Condition Description: 90 min at 37° C., read-out: hADAMTS-5 potency IC50

For the compound COc1cc(N2CCN(C(=O)[C@@H](C)C[C@H]3NC(=O)NC3=O)CC2)cc(F)c1F (stereo in doubt) , give its measured IC50 value.
> 100 nM

For the compound COc1cc(N2CCN(C(=O)CCC3(C4CC4)NC(=O)NC3=O)C[C@@H]2C)cc(F)c1F (some centres unmarked) , give its measured IC50 value.
0.001 to 25 nM

For the compound "COC[C@]1(C[C@H](C)C(=O)N2CCN(c3cc(F)c(Cl)c(OC)c3)CC2)NC(=O)NC1=O" , give its measured IC50 value.
0.001 to 25 nM

For the compound COc1cc(N2CCN(C(=O)CCC3(C)NC(=O)NC3=O)C[C@@H]2C)ccc1Cl (some centres unmarked) , give its measured IC50 value.
25 to 50 nM

For the compound "COc1cc(N2CCN(C(=O)[C@@H](C)C[C@@]3(c4ccccn4)NC(=O)NC3=O)CC2)cc(F)c1F" , give its measured IC50 value.
0.001 to 25 nM

For the compound COc1cncc(N2CCN(C(=O)[C@@H](C)C[C@@]3(C4CC4)NC(=O)NC3=O)C[C@@H]2C)c1 (stereo in doubt) , give its measured IC50 value.
50 to 100 nM

For the compound "COc1cc(N2CCN(C(=O)CC[C@@]3(C)NC(=O)NC3=O)C[C@@H]2C)cc(Cl)c1Cl" , give its measured IC50 value.
0.001 to 25 nM

For the compound COc1cc(N2CCN(C(=O)CCC3(C4CC4)NC(=O)NC3=O)CC2)ccc1F (centres unmarked) , give its measured IC50 value.
> 100 nM

---

# Test System: human ADAMTS6 (Homo sapiens (Human), UniProt Q9UKP5)
# Sequence (Q9UKP5 other isoform, or with tags, fused parts or gaps): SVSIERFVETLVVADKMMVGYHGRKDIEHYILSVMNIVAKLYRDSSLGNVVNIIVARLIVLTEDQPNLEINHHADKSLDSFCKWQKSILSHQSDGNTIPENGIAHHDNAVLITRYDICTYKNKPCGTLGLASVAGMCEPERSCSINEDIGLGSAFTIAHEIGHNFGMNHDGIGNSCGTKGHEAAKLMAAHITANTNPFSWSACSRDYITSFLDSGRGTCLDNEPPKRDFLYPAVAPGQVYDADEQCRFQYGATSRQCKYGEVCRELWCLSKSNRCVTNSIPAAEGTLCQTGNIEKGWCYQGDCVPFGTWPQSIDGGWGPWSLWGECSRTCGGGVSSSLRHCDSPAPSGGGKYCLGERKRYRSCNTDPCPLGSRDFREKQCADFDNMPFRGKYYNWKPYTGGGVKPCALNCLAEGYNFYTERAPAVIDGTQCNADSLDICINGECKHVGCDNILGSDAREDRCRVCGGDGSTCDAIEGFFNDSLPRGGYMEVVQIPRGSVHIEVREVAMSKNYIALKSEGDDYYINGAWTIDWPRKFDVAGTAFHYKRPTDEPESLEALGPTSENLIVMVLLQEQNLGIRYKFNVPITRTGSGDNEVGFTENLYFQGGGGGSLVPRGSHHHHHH
# Assay Info: hADAMTS-6 fluorescent based protease assay (520 MMP FRET substrate XII)
# Type: biochemical
# Condition Description: 37° C. for 2 h; read-out: hADAMTS-6 potency IC50
pIC50: −log10 of the molar value.
Readout Type: pIC50

For the compound "COc1cc(N2CCN(C(=O)CC[C@@]3(C)NC(=O)NC3=O)C[C@@H]2C)c(C)cc1F" , give its measured pIC50 value.
7.00 to 7.30

For the compound COc1cc(N2CCN(C(=O)[C@@H](C)C[C@@]3(C)NC(=O)NC3=O)C[C@@H]2C)ccc1Cl (stereo in doubt) , give its measured pIC50 value.
7.60 to 12.00

For the compound COc1cccc(N2CCN(C(=O)CCC3(C4CC4)NC(=O)NC3=O)CC2)c1 (centres unmarked) , give its measured pIC50 value.
< 7.00

For the compound "COc1cc(N2CCN(C(=O)[C@@H](C)C[C@@]3(C4CC4)NC(=O)NC3=O)C[C@@H]2C)cc(F)c1F" , give its measured pIC50 value.
7.60 to 12.00

For the compound "COc1cc(N2CCN(C(=O)CC[C@@]3(C4CC4)NC(=O)NC3=O)C[C@@H]2C)cc(Cl)c1F" , give its measured pIC50 value.
7.60 to 12.00

For the compound "COc1cc(F)cc(N2CCN(C(=O)CC[C@@]3(C)NC(=O)NC3=O)CC2)c1" , give its measured pIC50 value.
7.00 to 7.30

For the compound "COc1cc(F)ccc1N1CCN(C(=O)CC[C@@]2(C)NC(=O)NC2=O)CC1" , give its measured pIC50 value.
< 7.00

For the compound "COc1cc(F)cc(N2CCN(C(=O)[C@@H](C)C[C@@]3(C4CC4)NC(=O)NC3=O)CC2)c1" , give its measured pIC50 value.
7.60 to 12.00

For the compound "COc1cc(N2CCN(C(=O)CC[C@H]3NC(=O)NC3=O)CC2)cc(OC)c1Cl" , give its measured pIC50 value.
7.60 to 12.00

For the compound COc1cc(N2CCN(C(=O)[C@H](C)C[C@@]3(C4CC4)NC(=O)NC3=O)C[C@@H]2C)cc(F)c1F (stereo in doubt) , give its measured pIC50 value.
7.00 to 7.30

For the compound "COc1cc(N2CCN(C(=O)CC[C@H]3NC(=O)NC3=O)C[C@@H]2C)c(C)cc1Cl" , give its measured pIC50 value.
7.00 to 7.30

For the compound COc1cc(N2CCN(C(=O)CCC3(C)NC(=O)NC3=O)CC2)cc(F)c1Cl (centres unmarked) , give its measured pIC50 value.
7.60 to 12.00

For the compound "C[C@H]1CN(C(=O)CC[C@@]2(C)NC(=O)NC2=O)CCN1c1ccc(Cl)c(OC(F)(F)F)c1" , give its measured pIC50 value.
7.60 to 12.00

For the compound Cc1cccc(C2(CCC(=O)N3CCN(c4ccc(Cl)c(OC(F)(F)F)c4)[C@@H](C)C3)NC(=O)NC2=O)n1 (some centres unmarked) , give its measured pIC50 value.
7.60 to 12.00

For the compound COc1cc(N2CCN(C(=O)[C@@H](C)C[C@H]3NC(=O)NC3=O)CC2)cc(F)c1F (stereo in doubt) , give its measured pIC50 value.
7.60 to 12.00

For the compound "CC(C)c1cc(N2CCN(C(=O)CC[C@@]3(C)NC(=O)NC3=O)CC2)ccc1Cl" , give its measured pIC50 value.
7.00 to 7.30

For the compound COc1cc(N2CCN(C(=O)CCC3(C4CC4)NC(=O)NC3=O)CC2)ccc1F (centres unmarked) , give its measured pIC50 value.
< 7.00

For the compound "COc1cc(N2CCN(C(=O)CC[C@@]3(C)NC(=O)NC3=O)C[C@@H]2C)cc(N(C)C)c1Cl" , give its measured pIC50 value.
7.60 to 12.00

For the compound "COc1cc(N2CCN(C(=O)[C@@H](CO)C[C@@]3(C)NC(=O)NC3=O)CC2)cc(F)c1F" , give its measured pIC50 value.
7.60 to 12.00

For the compound "COc1cc(N2CCN(C(=O)CC[C@@]3(C)NC(=O)NC3=O)C[C@@H]2C)c(OC)cc1Cl" , give its measured pIC50 value.
7.60 to 12.00

---

# Test System: human ADAMTS-5 (Homo sapiens (Human), UniProt Q9UNA0)
# Sequence (Q9UNA0 262-930): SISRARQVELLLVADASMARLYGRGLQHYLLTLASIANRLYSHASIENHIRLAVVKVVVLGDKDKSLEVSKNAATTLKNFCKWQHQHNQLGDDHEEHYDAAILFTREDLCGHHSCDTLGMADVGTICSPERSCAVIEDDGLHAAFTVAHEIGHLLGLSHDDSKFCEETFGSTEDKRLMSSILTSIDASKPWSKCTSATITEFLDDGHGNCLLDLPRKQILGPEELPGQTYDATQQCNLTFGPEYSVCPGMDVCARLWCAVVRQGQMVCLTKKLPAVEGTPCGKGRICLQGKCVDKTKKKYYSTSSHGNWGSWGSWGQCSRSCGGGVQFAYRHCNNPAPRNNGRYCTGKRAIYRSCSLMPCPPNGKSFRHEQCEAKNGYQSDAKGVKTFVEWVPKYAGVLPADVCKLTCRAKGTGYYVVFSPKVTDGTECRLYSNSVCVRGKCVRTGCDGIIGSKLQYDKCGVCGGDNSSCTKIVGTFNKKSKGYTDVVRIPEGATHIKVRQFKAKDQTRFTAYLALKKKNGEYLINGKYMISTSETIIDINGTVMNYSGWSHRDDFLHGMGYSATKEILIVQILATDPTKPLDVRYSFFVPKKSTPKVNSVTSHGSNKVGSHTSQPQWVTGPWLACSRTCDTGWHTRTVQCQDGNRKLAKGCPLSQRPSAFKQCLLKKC
# Assay Info: hADAMTS-5 TBIS-1 cleavage assay, Protocol 3
# Type: biochemical
# Condition Description: 90 min at 37° C., read-out: hADAMTS-5 potency IC50
Readout Type: IC50

Give reported IC50 for COc1cccc(N2CCN(C(=O)CCC3(C)NC(=O)NC3=O)CC2)c1C (centres unmarked) (human ADAMTS-5 (Homo sapiens (Human), UniProt Q9UNA0))
> 0.1 µM

Give reported IC50 for "COc1cc(N2CCN(C(=O)CC[C@H]3NC(=O)NC3=O)CC2)cc(OC)c1F" (human ADAMTS-5 (Homo sapiens (Human), UniProt Q9UNA0))
> 0.1 µM

Give reported IC50 for "CCc1cc(N2CCN(C(=O)CC[C@@]3(C)NC(=O)NC3=O)C[C@@H]2C)ccc1Cl" (human ADAMTS-5 (Homo sapiens (Human), UniProt Q9UNA0))
0.05 to 0.1 µM

Give reported IC50 for "COc1cc(N2CCN(C(=O)CC[C@@]3(C)NC(=O)NC3=O)C[C@@H]2C)cc(Cl)c1F" (human ADAMTS-5 (Homo sapiens (Human), UniProt Q9UNA0))
0.025 to 0.05 µM

Give reported IC50 for "COc1cc(N2CCN(C(=O)CC[C@H]3NC(=O)NC3=O)C[C@H]2C)cc(F)c1F" (human ADAMTS-5 (Homo sapiens (Human), UniProt Q9UNA0))
> 0.1 µM

Give reported IC50 for "COc1cc(N2CCN(C(=O)CC[C@H]3NC(=O)NC3=O)CC2)cc(OC)c1Cl" (human ADAMTS-5 (Homo sapiens (Human), UniProt Q9UNA0))
> 0.1 µM

Give reported IC50 for COc1cc(N2CCN(C(=O)CCC3(C)NC(=O)NC3=O)CC2)cc(OC)c1Cl (centres unmarked) (human ADAMTS-5 (Homo sapiens (Human), UniProt Q9UNA0))
> 0.1 µM

Give reported IC50 for "CCOc1cc(N2CCN(C(=O)CC[C@@]3(C)NC(=O)NC3=O)C[C@@H]2C)ccc1Cl" (human ADAMTS-5 (Homo sapiens (Human), UniProt Q9UNA0))
> 0.1 µM

Give reported IC50 for "COc1cc(N2CCN(C(=O)CC[C@H]3NC(=O)NC3=O)C[C@@H]2C)cc(F)c1Cl" (human ADAMTS-5 (Homo sapiens (Human), UniProt Q9UNA0))
0.05 to 0.1 µM

Give reported IC50 for "COc1cc(N2CCN(C(=O)[C@@H](CO)C[C@@]3(C)NC(=O)NC3=O)CC2)cc(F)c1F" (human ADAMTS-5 (Homo sapiens (Human), UniProt Q9UNA0))
0.025 to 0.05 µM

Give reported IC50 for "COc1cc(Cl)ccc1N1CCN(C(=O)CC[C@@]2(C)NC(=O)NC2=O)C[C@@H]1C" (human ADAMTS-5 (Homo sapiens (Human), UniProt Q9UNA0))
> 0.1 µM

Value source: patent US10829478B2
